Below, each of the binders is paired with its reported kon value.
- TARGET: T1, monomeric cynomolgus monkey CSF1R ectodomain protein (cynomolgus monkey, UniProt P07333 20-517 (human entry))
- T1 construct: also called monomeric cyno CSF1R; Cyno CSF1R
- T1 chain: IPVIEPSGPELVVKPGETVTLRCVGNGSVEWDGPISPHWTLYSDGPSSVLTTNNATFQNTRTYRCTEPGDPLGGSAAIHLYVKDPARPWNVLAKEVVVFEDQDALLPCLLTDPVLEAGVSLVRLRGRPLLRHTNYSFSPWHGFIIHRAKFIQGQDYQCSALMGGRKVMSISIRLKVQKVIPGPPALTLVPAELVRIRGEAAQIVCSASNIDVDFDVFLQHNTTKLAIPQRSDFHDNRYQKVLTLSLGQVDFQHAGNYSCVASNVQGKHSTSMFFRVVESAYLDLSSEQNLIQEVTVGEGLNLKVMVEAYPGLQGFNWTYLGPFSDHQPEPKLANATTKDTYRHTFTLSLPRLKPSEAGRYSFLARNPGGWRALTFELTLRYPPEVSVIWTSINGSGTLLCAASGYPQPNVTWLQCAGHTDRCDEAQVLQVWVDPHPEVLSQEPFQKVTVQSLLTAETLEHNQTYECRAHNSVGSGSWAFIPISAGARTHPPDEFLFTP
- PROTOCOL: SPR Biacore, IgG captured, monomeric CSF1R analyte
- Procedure: Affinity (KD) of purified IgGs was determined via SPR with antigen in-solution on a Biacore 3000 (GE). […] The obtained sensorgrams were analysed using the Biacore 3000 evaluation (BIAevaluation) software. The KD was calculated by simultaneous fitting of the association and dissociation phases to a 1:1 Langmuir binding model. […]
Response body: numeric value in M⁻¹ s⁻¹, unit text excluded.

Past entries and their recorded results:
BINDER	kon / M⁻¹ s⁻¹
30E06 (antibody, human IgG4, V domains shown, Library-derived clone; tested as human IgG4(S228P) / human Ckappa IgG; also called 30E6; mAb-3) VH: QVQLVQSGAEVKKPGSSVKVSCKASGYTFTSYYMIWVRQAPGQGLEWMGDINPYNGGTTYAQKFQGRVTITADESTSTAYMELSSLRSEDTAVYYCAREGPYFSNLYVMDYWGQGTLVTVSS VL: EIVLTQSPATLSLSPGERATLSCRASQSVSYEGENYLAWYQQKPGQAPRLLIYAASNLATGIPARFSGSGSGTDFTLTISSLEPEDFAVYYCQLSNEDLLTFGGGTKVEIK	570000
29D10 (antibody, human IgG4, V domains shown, Library-derived clone, tested as human IgG4(S228P)/Ckappa IgG; framework residue limits counted on the grafts) VH: QVQLVQSGAEVKKPGSSVKVSCKASGYTFTSYYMIWVRQAPGQGLEWMGDINPYNGGANFAQKFQGRVTITADESTSTAYMELSSLRSEDTAVYYCAREGPYFSNLYVMDYWGQGTLVTVSS VL: EIVLTQSPATLSLSPGERATLSCRASQSVSYEGENYLNWYQQKPGQAPRLLIYAASNRATGIPARFSGSGSGTDFTLTISSLEPEDFAVYYCQLSNEDLLTFGGGTKVEIK	520000
30D02 (antibody, human IgG4, V domains shown, Library-derived clone, tested as human IgG4(S228P)/Ckappa IgG; framework residue limits counted on the grafts) VH: QVQLVQSGAEVKKPGSSVKVSCKASGYTFSSYYMIWVRQAPGQGLEWMGDINPYNGGTTYAQKFQGRVTITADESTSTAYMELSSLRSEDTAVYYCAREGPYFSNLYVMDYWGQGTLVTVSS VL: EIVLTQSPATLSLSPGERATLSCRASQSVEYQGENYLNWYQQKPGQAPRLLIYAASNRATGIPARFSGSGSGTDFTLTISSLEPEDFAVYYCQLSNQDLLTFGGGTKVEIK	190000
MH5 (antibody, human IgG4, V domains shown, Designer (maximally humanized) clone; tested as human IgG4(S228P)/Ckappa IgG; also called mAb-2) VH: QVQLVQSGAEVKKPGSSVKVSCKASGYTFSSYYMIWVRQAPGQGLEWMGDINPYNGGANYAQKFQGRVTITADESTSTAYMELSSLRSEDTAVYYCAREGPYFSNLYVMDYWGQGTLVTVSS VL: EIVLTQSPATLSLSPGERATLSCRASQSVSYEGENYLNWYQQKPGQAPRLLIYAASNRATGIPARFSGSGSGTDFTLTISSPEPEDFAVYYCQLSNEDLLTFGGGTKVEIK	500000

Read the next record carefully.
Asked: Name the recorded kon for 29B07 (antibody, human IgG4, V domains shown, Library-derived clone, tested as human IgG4(S228P)/Ckappa IgG; framework residue limits counted on the grafts) VH: QVQLVQSGAEVKKPGSSVKVSCKASGYTFTSYYIIWVRQAPGQGLEWMGDINPYNGGATYAQKFQGRVTITADESTSTAYMELSSLRSEDTAVYYCAREPPYFSNLYVMDYWGQGTLVTVSS VL: EIVLTQSPATLSLSPGERATLSCRASQSVEYEGDNYLNWYQQKPGQAPRLLIYAASNRATGIPARFSGSGSGTDFTLTISSLEPEDFAVYYCQLSNQDLLTFGGGTKVEIK .
Given back: 310000
